# koff listing for each entry below
# Study Target: T1, extracellular domain of human IL-4Rα (residues 26–232), C-terminal 6× His (human, UniProt P24394)
# T1 construct: human interleukin-4 receptor alpha subunit, extracellular domain, residues 26-232; Subcloned into the pSecTag2A vector; N-glycosylated (~45 kDa, ~26 kDa after PNGase F); also called wild-type IL-4Rα; soluble IL-4Rα; source: HEK293F, transiently transfected, purified (Ni-NTA); not shown: His6, C-terminal, kept
# T1 sequence (P24394 26-232): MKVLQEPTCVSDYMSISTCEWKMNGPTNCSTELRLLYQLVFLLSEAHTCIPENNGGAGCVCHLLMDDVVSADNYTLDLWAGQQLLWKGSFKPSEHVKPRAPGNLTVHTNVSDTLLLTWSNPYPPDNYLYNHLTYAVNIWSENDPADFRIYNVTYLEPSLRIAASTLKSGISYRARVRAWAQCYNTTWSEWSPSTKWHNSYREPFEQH
# Experiment Notes: BLI; OctetRED96; Ab (1 μg/mL) captured on anti-human IgG Fc capture (AHC) biosensors at low density (0.6 to 0.8 nm), soluble monomeric IL-4Rα as analyte; 25 °C, PBS pH 7.4, 0.02% Tween 20; association 300 s, dissociation 600-900 s; 1:1 binding model
# Condition: both partners purified
Experimental Endpoint: koff (s⁻¹)

{"Binder": "4R34.1.17, human IgG1 (antibody, V domains shown) VH: EVQLLESGGGLVQPGGSLRLSCAASGFTFSNYAMSWVRQAPGKGLEWVSAITSSGRSIYYADSVKGRFTISRDNSKNTLYLQMNSLRAEDTAVYYCARVHRAFDYWGQGTLVTVSS VL: QSVLTQPPSASGTPGQRVTISCSGSTKQMHNYQFNWYQQLPGTAPKLLIYADSHRPSGVPDRFSGSKSGTSASLAISGLRSEDEADYYCGTWDYSLSGYVLGGGTKLTVL", "Experimental Endpoint": "koff", "Value": 0.000879}
{"Binder": "4R34.2, human IgG1 (antibody, V domains shown) VH: EVQLLESGGGLVQPGGSLRLSCAASGFTFSNYAMSWVRQAPGKGLEWVSAITSSGANIYYADSVKGRFTISRDNSKNTLYLQMNSLRAEDTAVYYCARVHRAFDYWGQGTLVTVSS VL: QSVLTQPPSASGTPGQRVTISCSGSSSNIGSNTFNWYQQLPGTAPKLLIYADSHRPSGVPDRFSGSKSGTSASLAISGLRSEDEADYYCGTWDYSLRGYVLGGGTKLTVL", "Experimental Endpoint": "koff", "Value": 0.00401}
{"Binder": "4R34.1.21, human IgG1 (antibody, V domains shown) VH: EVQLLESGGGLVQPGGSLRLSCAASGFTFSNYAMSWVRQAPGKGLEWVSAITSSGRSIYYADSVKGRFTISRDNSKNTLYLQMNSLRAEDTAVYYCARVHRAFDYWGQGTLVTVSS VL: QSVLTQPPSASGTPGQRVTISCSGSAALDLSPSFNWYQQLPGTAPKLLIYADSHRPSGVPDRFSGSKSGTSASLAISGLRSEDEADYYCGTWDYSLSGYVLGGGTKLTVL", "Experimental Endpoint": "koff", "Value": 0.00106}
{"Binder": "4R34.1.18, human IgG1 (antibody, V domains shown) VH: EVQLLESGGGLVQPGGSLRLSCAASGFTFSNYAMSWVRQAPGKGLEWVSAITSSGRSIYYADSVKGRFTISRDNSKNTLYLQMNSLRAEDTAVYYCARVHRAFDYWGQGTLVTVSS VL: QSVLTQPPSASGTPGQRVTISCSGSLLRGENLQFNWYQQLPGTAPKLLIYADSHRPSGVPDRFSGSKSGTSASLAISGLRSEDEADYYCGTWDYSLRGYVLGGGTKLTVL", "Experimental Endpoint": "koff", "Value": 0.00175}
{"Binder": "4R34, human IgG1 (antibody, V domains shown) VH: EVQLLESGGGLVQPGGSLRLSCAASGFTFSNYAMSWVRQAPGKGLEWVSAISSGGGNIYYADSVKGRFTISRDNSKNTLYLQMNSLRAEDTAVYYCARVHRAFDYWGQGTLVTVSS VL: QSVLTQPPSASGTPGQRVTISCSGSSSNIGSNTFNWYQQLPGTAPKLLIYADSHRPSGVPDRFSGSKSGTSASLAISGLRSEDEADYYCGTWDYSLSGYVLGGGTKLTVL", "Experimental Endpoint": "koff", "Value": 0.00361}
